Test system: MS2 coat protein
experimentNotes: apparent Kd, MS2 coat protein; higher = weaker binding; RNA-MaP array; FMN 200 µM where present
measurementSetup: ligand present: flavin mononucleotide; designed as: OFF switch for flavin mononucleotide
For each record, write down the corresponding apparent Kd.
Answers are plain numbers, in nM.

| itemSequence | apparent Kd [nM] |
| --- | --- |
| AAGGAGUGAGGAUAUACAUGAGGAUCACCCAUGUUGAUGGAAACGUCAGAGAAAGAAGGUAGAAGGCACAAGAA | 58.5 |
| CUUUUGUGAGGAUAUCAGUAGUAAAAAAAUUAAAUUACUACUGAGAAGGCACAUGAGGAUCACCCAUGUUCCUC | 262 |
| CCGGAAAUAGAGGAUAUAGGAGUCGAUAGACUCCUAGAAGGCUAUACAUGAGGAUCACCCAUGUGUCCUACCGG | 39.6 |
| AAUUCACAUGAGGAUCACCCAUGUCAGGAUAUGGUGACGCGGGUUUCGGUGCGUGUUGCCAGAAGGGACAGCUA | 119 |
| UAGAAGUCAGGAUAUCCAUGGCGGCACUUGCGUGGUGGCGUGGAGAAGGGACAUGAGGAUCACCCAUGUAAAGA | 42 |

# return apparent Kd for each item in the list
1. AGGGAGUAAGGAUAUGCUGCUCGUCACUUGCGUGAUGAGUAGCAGAAGGUACAUGAGGAUCACCCAUGUAAAGA
2. UCUACAUAAAUUCAUCAAUACAGAAAGGAUAUGAGAUACAUGAGGAUCACCCAUGUGCAUGUGAAUUAGAAGGUUCAAUUAACU

## Result
1. 22.9
2. 11.1

* * *

Test system: MS2 coat protein
experimentNotes: apparent Kd, MS2 coat protein; higher = weaker binding; RNA-MaP array; FMN 200 µM where present
measurementSetup: designed as: OFF switch for flavin mononucleotide; no ligand
Quick rule for you: apparent Kd at 200 nM or higher means 1 (yes), lower means 0 (no).

Worked cases, answers included:
| itemSequence | group |
| --- | --- |
| GACAUACGCGAUCCUUGGACAUGAGGAUCACCCAUGUACCGGAAGGAUAUCCUUCGCAAAAGCUAGGAGAAGGUUCGGUAGGUC | 0 (no) |
| ACAUGUUUUACAGGAUAUGUUUUACAAUAAACAUUCAGUUAUUACGAUUAAACAGAAGGGUAUACAUGAGGAUCACCCAUGUAA | 0 (no) |
| AAUAUGUUGCAGAAGGCCAUGUUGUGGUAGUACCUCAUGACAUGAGGAUCACCCAUGUCUGUGUUGGAGGAUAUGCAAUAUAUU | 0 (no) |
| GCACGCUGGCGAGGAUAUAGACAUGAGGAUCACCCAUGUGGCGCACAUCGGGCCCUAGUCCUCAGCUAGAAGGCGCCUGUGAUA | 1 (yes) |
| CUGAGGUCAGGAUAUGCAUGGCGGGACUUGCGUCGUGGCGUGCAGAAGGGACAUGAGGAUCACCCAUGUGGAGU | 0 (no) |
| AGUGCGUAUGUGAGGAUAUGCUGGUCCUUGGAUCGGCAGAAGGCACAUGAGGAUCACCCAUGUGGUGUCGUACC | 1 (yes) |

Could you now look at the following sequence, please?
## Task Has `UCACGGGAUUGAGGAUAUAUAUUAAUUUUUUUUAUAGAAGGCAAAUUGUUAGAUUAUUCACUAUACAUGAGGAUCACCCAUGUU` a recorded apparent Kd greater than or equal to 200 nM?
## Result 0 (no)

* * *

Test system: MS2 coat protein
experimentNotes: apparent Kd, MS2 coat protein; higher = weaker binding; RNA-MaP array
measurementSetup: ligand present: flavin mononucleotide; designed as: ON switch for flavin mononucleotide
For each record, write down the corresponding apparent Kd.
Numbers only, in nM.

As a guide, the following entries are already answered.
| itemSequence | apparent Kd, nM |
| --- | --- |
| GCUACCACCGCAGGAUAUAAUCGGACACUCGUAGCGUUGCGAACAUGAGGAUCACCCAUGUCUAUUUAGAAGGGCGCAUGGGAU | 42.6 |
| AGGCCAUCCAAGAAGGCUUACAACAUGAGGAUCACCCAUGUCACGGAGAUGUAUAACAUCUACUAAGAGGAUAUUGGGAGAGCU | 37.4 |
| GCGCCAAGUAAGAAGGGCUCAAAGGAAAACCUAGACUUCACUACAUGAGGAUCACCCAUGUCUCAGCAGGAUAUUAUCGGUCAA | 17.9 |
| UGGAAGAUUGAAGGAUAUCCGGUCAAUUAAUAUGGAGAAGGUCAAUAUAUGGACAUGAGGAUCACCCAUGUAGAGUCAACUCGA | 26.8 |
| GCUAGUAGAGAGAAGGAGCUUGAAUAUUUAGCGCUAGGAUAUCUUCGGUAGCCGUAGAGCAUACAUGAGGAUCACCCAUGUCCG | 27.8 |

# return apparent Kd for each item in the list
1. AUACCUAGUGAAGGAUAUCCAAAUAACUAUAGAGGAGAAGGACACAUUCUAACAUGAGGAUCACCCAUGUCCCGCCGUCUUACC
2. CCGCACAUGAGGAUCACCCAUGUUCCCAGUCAACUAGGAGCCAAGGAUAUCGUUCGCGAGUGCACCGAGAAGGUGGCCCAUGAA
3. GCUGCACAUGAGGAUCACCCAUGUACCCUACUGAGAGGAUAUGUGAUCCGUUAGCAAUCCACAGAAGGCUCGGUUC
4. ACGUGGGUAACCAAGGAUAUAUUUACACCCACAUGAGGAUCACCCAUGUUCUUGCAGGCAUAUAAAUAGAAGGUGGAAACGCAGUG
5. AAUUCCUGUAAGAAGGGCGAUAUACAUGAGGAUCACCCAUGUCGUUGGAUUGAAGAAAAUCAGACGCAGGAUAUUAUUGGGAAC
6. GUAACGGGAAGCAGUGGCUUGACAUGAGGAUCACCCAUGUACAGAAGGGACGAUUACGUAAUGCGUCAGGAUAUGUGCCGUAGA
7. CGCAGGGCCCAGAAGGGCAUAAUGUUAGACUACAUGAGGAUCACCCAUGUGCCACGAGAGGUUGUGCAGGAUAUGGAUCUAUUG
8. ACUAAACCACAGAAGGAACUGAGUGCGCAAAAGUAAGGAUAUGUAAACAAUAACAUGAGGAUCACCCAUGUGACAGUAAGUUUA

## Result
11.9
72.6
10.5
129
40
28.1
23.9
7.2

## Task Data request, read-out apparent Kd, for `CACUGACAUGAGGAUCACCCAUGUCUCCUGCUUGUAGGAUAUAGGUGGUCGCUGGACAGUCUAGAAGGACAUGUAA`
## Result 49.5

* * *

Tested on: MS2 coat protein
experimentNotes: apparent Kd, MS2 coat protein; higher = weaker binding; RNA-MaP array; FMN 200 µM where present
measurementSetup: designed as: OFF switch for flavin mononucleotide; no ligand
assayMetric: apparent Kd (nM)
Answers are plain numbers, in nM.

As a guide, the following entries are already answered.
| itemSequence | numericResult |
| --- | --- |
| UGAUAGCACAGAGGAUAUGCGUAGUGUUAUCACUACAUGAGGAUCACCCAUGUAGAAGGCUGUGCUAUCUAAGUCGGAAACGAC | 6.33 |
| ACGUUUUUUGAGGAUAUGCGAUAGUUUUAUAUCGUAGAAGGCGAUACAUGAGGAUCACCCAUGUUUAUGGGCAU | 167 |
| AAUUGAAACGUAGGAUAUCGCAAAGAUCUAGAACGAGAAGGACGUACAUGAGGAUCACCCAUGUUAAAUGGUGAAGAUUAGAUG | 768 |
| GGCGGUCCUUAAUGCACCUGCACAUGAGGAUCACCCAUGUACAGAAGGGCCAGCACCGAAGUAUGGCAGGAUAUGUCGCACGAG | 7.56 |
| UACCUGAGGCUUUGCUUUAGGCUUACAUGAGGAUCACCCAUGUAGGAUAUGGUAGGCAAAGCUUACCAGAAGGACAUGGAAAUU | 19 |
| CGAUCGUGUAGAGGAUAUGUUAAACAUGAGGAUCACCCAUGUAAGGUAGAAAUUUUUAUAAACAUACAGAAGGCUACACGAUCG | 7.32 |

Moving on to another sequence below.
## Task Data request, read-out apparent Kd, for `CCCUCAACAUGAGGAUCACCCAUGUAGGAUAUCGCUAUUGUAAUCAUGAAACAUGAUUACAAUAGCGAGAAGGACAUAUGACCC`
## Result 21.5

* * *

Test system: MS2 coat protein
experimentNotes: apparent Kd, MS2 coat protein; higher = weaker binding; RNA-MaP array; FMN 200 µM where present
measurementSetup: designed as: OFF switch for flavin mononucleotide; no ligand
assayMetric: apparent Kd (nM)
Numbers only, in nM.

As a guide, the following entries are already answered.
| itemSequence | systemTested | assayMetric | unitTag | numericResult |
| --- | --- | --- | --- | --- |
| UUGAGGUAGGAGAAGGACAGAGGCGGAAACACAAACAUGAGGAUCACCCAUGUAGGAUAUCCUAACUAACGAGAAUACCUCAAG | MS2 coat protein | apparent Kd | nM | 6.36 |
| CUAUAUAAUACCUCAUGUACAUGAGGAUCACCCAUGUUAACUUAGGAUAUAUUUAUAUUAAUAGAGUAGAAGGAAGUACUAUUU | MS2 coat protein | apparent Kd | nM | 22.1 |

# return apparent Kd for each item in the list
1. GGAUGACAAAGUCAUCCUAAACGAACAUGAGGAUCACCCAUGUAGGAUAUGCUACUCAAAGAGUAGCAGAAGGACAUGUGCCUU
2. GUUUACGUGGAAGGAUAUACAUUUGACAUCCUGAUGCGCGCAAUACCCACAUGAGGAUCACCCAUGUAGAAGGUCUGCGAAAGA

## Result
1. 37.3
2. 14.7

# credit: the EternaBench riboswitch data
